system: Plasmodium falciparum; experiment: NOVARTIS: Inhibition of Plasmodium falciparum 3D7 (drug-susceptible) proliferation in erythrocyte-based infection assay; format: functional, organism-based; conditions: Plasmodium falciparum, 3D7
Please assign FALSE whenever EC50 is at or above 0.7 µM, and TRUE whenever it is below.

* CCCCCN(C(=O)c1ccc(C)cc1)C(C)c1nc2ccccc2c(=O)n1-c1ccccc1CC (configuration not stated) | FALSE
* Nc1cc(C(=O)Nc2ccc(C3=NCCCN3)cc2)ccc1C(=O)Nc1ccc(C2=NCCCN2)cc1 | TRUE
* CN1/C(=C\C=C\C2=[N+](C)c3ccc4ccccc4c3C2(C)C)C(C)(C)c2ccccc21 | FALSE
* O=C(NCCc1ccccc1)c1cnc(NCCCN2CCCC2)nc1Nc1ccccc1 | TRUE
* O=C(NCCCCNc1ccnc2cc(Cl)ccc12)c1cc(C(F)(F)F)cc(C(F)(F)F)c1 | TRUE
* CCOC(=O)c1ccc2c(c1)[n+](CC)c(/C=C/N(C)c1ccccc1)n2CC | TRUE
* O=C(Nc1ccccc1O)c1ccc(C(=O)N(C2CCCCC2)C2CCCCC2)cc1 | FALSE
* C[n+]1ccccc1/C=C/C1=C(c2ccccc2)Oc2ccccc2O1 | TRUE
* c1ccc2c(NCCc3c[nH]c4ccccc34)c3ccccc3nc2c1 | TRUE
* Cc1cc(NC(=O)/C=C/c2ccccc2Cl)ccc1Br | FALSE
* COc1nc(Nc2ccc(C(C)C)cc2)nc(OC)n1 | TRUE
* CCCCCc1cc(O)c2c3c(c(=O)oc2c1)CN(C)CC3 | TRUE
* O=C(CCl)Nc1ccc(N2CCCCC2)cc1 | FALSE
* CCn1c(CSc2nc(C)cc(C)n2)nnc1SCC(N)=O | FALSE
* O=C(Nc1cccc(C2=NCCN2)c1)c1ccc(C(=O)Nc2cccc(C3=NCCN3)c2)cc1 | TRUE
* N=C1NC(=O)/C(=C/C=C/c2ccc([N+](=O)[O-])o2)S1 | FALSE
* COc1ccc(C2(CNCC(O)c3cccc([N+](=O)[O-])c3)CCCC2)cc1OC (configuration not stated) | TRUE
* O=C(Nc1nc2ccccc2s1)c1ccc(S(=O)(=O)N2CCOCC2)cc1 | FALSE
* COc1ccccc1Cn1c(SCC(=O)Nc2cccc(C(F)(F)F)c2)nc2ccc(Br)cc2c1=O | FALSE
* c1ccc(CCNc2cccc3ccccc23)cc1 | TRUE
* CCN(CC)CCNc1ccnc2ccc([N+](=O)[O-])cc12 | TRUE
* O=C(CCC1CCCN(C(=O)c2ccsc2)C1)N1CCN(c2ccccn2)CC1 (configuration not stated) | FALSE
* CCc1c(C#N)c(N)nc(SCC(=O)c2ccc(C)cc2)c1C#N | FALSE
* COc1cccc(CN2CCc3nc(N4CCCCC4)sc3C2)c1 | TRUE
* CCN1C=C(c2ccc(C)cc2)S/C1=C\c1sc2ccccc2[n+]1C | TRUE
* Cc1cc(N2CCC(N(C)C3CCCC3)CC2)nc2cc(O)ccc12 | TRUE
* CCOc1ccc(CCNC(=O)Nc2ccc(F)cc2)cc1OCC | FALSE
* COc1ccc(-c2ccc(C=C3C(=O)NC(=S)NC3=O)o2)cc1Cl | FALSE
* O=C(NCCCCNc1ccnc2cc(Cl)ccc12)C(c1ccccc1)c1ccccc1 | FALSE
* Cc1ccc(C2C3=C(CC(C)(C)CC3=O)N(Cc3ccc4c(c3)OCO4)C3=C2C(=O)CC(C)(C)C3)cc1 | FALSE
* COc1ccc(C2CC(c3cccs3)=NN2C(=O)CSc2nnc(CNC(=O)c3cccs3)n2-c2cc(C)ccc2C)cc1 (configuration not stated) | FALSE
* Brc1ccc(/C=C/c2cc[n+](Cc3ccccc3)cc2)cc1 | TRUE
* CC(=O)NC1=NN(C(C)=O)C(c2ccc(Br)cc2)S1 (configuration not stated) | FALSE
* Cc1ccc(-c2cc(N3CCCC3CO)n3nccc3n2)cc1 (configuration not stated) | FALSE
* CCCOC(=O)C1=C(C)NC2=C(C(=O)CC(c3ccc(Cl)cc3)C2)C1c1ccccc1F (configuration not stated) | TRUE
* COc1cc(NC(C)CCCN(Cc2ccc(N(C)C)cc2)C(=O)C(Cl)Cl)c2ncccc2c1 (configuration not stated) | FALSE
* CCC(CC)CN1CCC(O)(c2ccc3oc(C(=O)Nc4ccc(OC)cc4)cc3c2)CC1 | FALSE
* N#CC(C#N)C(C(Sc1ccc([N+](=O)[O-])cc1)=C(O)c1ccccc1)c1cccs1 (configuration not stated) | FALSE
* COc1ccc(C2Nc3ccc([N+](=O)[O-])cc3C3C=CCC32)cc1[N+](=O)[O-] (configuration not stated) | FALSE
* CCOc1ccc(-c2nc(NC(=O)CS(=O)(=O)c3ccccc3)sc2C)cc1 | TRUE
* CCCOC(=O)C1=C(C)NC2=C(C(=O)CC(c3ccc(OC)c(OC)c3)C2)C1c1cccc(C)c1 (configuration not stated) | TRUE
* Cc1cc(C)c2c(c1)-c1c(ssc1=S)C(C)(C)N2C(=O)c1ccccc1 | TRUE

Provenance of the data: ChEMBL document CHEMBL1156829
